experimentNotes: yeast display, Sf9 membrane polyspecificity reagent, FACS + sequencing; frameworks hold sequencing errors
valueKind: polyreactivity (PSR sort gate)

Some solved entries appear below for comparison.
[[record]]
sequencerecord = "QVQLVDSGGGLVQAGGSLRLSCAASGSIFKRNAMGWYRQAPGKERELVATISSRGGSTYYADSVKGRFTISRDNAKNTVYLQMNSLKPEDTAVYYCSARGYQITGNYYTPTSKYNYWGQGTQVTVSS"
result = "high polyreactivity"

[[record]]
sequencerecord = "QVQLVESGGGLVQAGGSLRLSCPPSGYTISHYAMGWYRQAPGKERELVAGITWSGGSTYYADSVKGRFTISRDNAKNTVYLQMNSLKPEDTSVYFCAAKYYWYYSYSGIPLFDYWGQGTQVTVSS"
result = "low polyreactivity"

[[record]]
sequencerecord = "QVQLVESGGGLVQARGSLRLSCAASGSTFHQYVMGWYRQAPGKESELVAAINSSGSSTYYADSVKGRFTISRDNAKNTVDLQMNSLKPEDTAVYYCARDGLRNPGGYGFWGQGTQVTVSS"
result = "low polyreactivity"

[[record]]
sequencerecord = "QVQLVESGGGLVQAGGSLRLSCAPSGRTFLAYAMGWYRQAPGKEREVVAAISSSGSTTYYADSVKGRFTISRDNAKNTVYLQMNSLKPEDTAVYYCAASNGYRSSYYRYDYWGQGTQVTVSS"
result = "low polyreactivity"


Turning now to a further record.
Need polyreactivity (PSR sort gate), item QVQLVESGGGLVQAGGSLRLSCAASGRTFVYYAMGWYRQAPGKERELVAAISSGGSTYYADSVKGRFTISRDNAKNTVYLQMNSLKPEDTAVYYCNALRYTHYLLTYGYWGQGTQVTVSS
high polyreactivity

* * *

experimentNotes: yeast display, Sf9 membrane polyspecificity reagent, FACS + sequencing; frameworks hold sequencing errors
valueKind: polyreactivity (PSR sort gate)

Some solved entries appear below for comparison.
[[record]]
sequencerecord = "QVQLHESGGGLVQAGGSLRRSCAASGTISYAGPMGWYRQAPGKEREFVAGIGVGSNTNYADSVKGRYTIIRDNAKNTVYLQMNSLKPEDTAVYYCAVGGYAPLGRPYWGQGTQVTVSS"
valuekind = "polyreactivity (PSR sort gate)"
result = "low polyreactivity"

[[record]]
sequencerecord = "QVQLVESGGGLVQAGGSLRLSCAASGSTFDQYGMGWYRQAPGKDRELVAAITSVGGTNYADSVKGRFTISRDNAKKTVYLQMNSLKPEDTAVYYCARRYPKNHKAPGRMDYWGQGTQVTVSS"
valuekind = "polyreactivity (PSR sort gate)"
result = "low polyreactivity"

[[record]]
sequencerecord = "QVQLVESGGGLVQAGGSLRLSCAASGSIFDYYAMGWYRQAPGKERELVATISGGGGTTYYADSVKGRFTISRDTAKNTVYLQMNSLKPEDTAVYYCAADSLGYNYWGQGTQVTVSS"
valuekind = "polyreactivity (PSR sort gate)"
result = "low polyreactivity"

[[record]]
sequencerecord = "QVQLVESGGGLVQAGGSLRLSCAASGRIFYKYVRGCYRQAPGKDRELVATITSGGSTYYADSVKGRFTISRDNAKNTVYLQMNSLNPEDTAVYYCAARKYYSRAYDYWGQGTQVTVSS"
valuekind = "polyreactivity (PSR sort gate)"
result = "high polyreactivity"

[[record]]
sequencerecord = "QVPLVEAGGGLVQAGGSLRVSCAASGITFQLYGMGWYSQAPGKERELVAAITGSDGITYYADSVKGRFTISLDNAKNTVYLPMNSLKPEDTAVYYCAAEWWDYWNEYDYWGQGTQVTVSS"
valuekind = "polyreactivity (PSR sort gate)"
result = "high polyreactivity"

[[record]]
sequencerecord = "QVQRVESGGGLVQAGRSLRLSCAASGTTFGRNAMGWYRQAPGIERELVAAINSGGGTYYADSVKGRFTISRDNAKNTVYLQMNSLKPEDTSVFYCAAARRYGNYDYWGQGTQLTVSS"
valuekind = "polyreactivity (PSR sort gate)"
result = "low polyreactivity"

[[record]]
sequencerecord = "QVKLVESGGGLVQAGGSLRLSCCASGSTFSPNTMGRYRQAPGKDREVVAAITYRGANTYYADSVKGRFTISRDNAKLTVYLQMNSLKPEDTAVYYCSAVYAYHHVGFGYWGQGTQVTVSS"
valuekind = "polyreactivity (PSR sort gate)"
result = "low polyreactivity"

[[record]]
sequencerecord = "QVQLVESGGGLVQAGGSLRLSCAASGRIFGYYAMGWYRQAPGKERELVAAINSGSRTYYADSVKGRFTISRDNAKNTVYLQMISLKAEDTAVYDCAASVRYPPYRSSDGQRGGYWGQGTEVTVSS"
valuekind = "polyreactivity (PSR sort gate)"
result = "high polyreactivity"


Need polyreactivity (PSR sort gate), item QVQLVESGGGLVQAGGSLRLSCAASGSIFRYNAMGWYRQAPGKERELVAAITWSGGSTYYADSVKGRFTISRDNAKNSVYLQMNSLKPEDTAVYYCAASPYPHYRRYTGGFYYWGQGTQVTVSS
high polyreactivity

Need polyreactivity (PSR sort gate), item QVQLVESGGGLVQAGGSLRLSCAASGSTFDVYAMGWYRQAPGKERELVAVINTSGTRTYYADSVKGRFTISRDNAKNTVYLQMNSLKPEDTAVYYCNAGGHLEMNYWGQGTEVTVSS
low polyreactivity

Need polyreactivity (PSR sort gate), item QVQLVESGGGLVQAGGSLRLTCAASGSTFWSYGMGWYRPAPGKERELVAAITRGGSTYYADSVKGRFTISRDNAKNTVYLQMNSLIPEDTAVYYCAAGISVRWSPSYYYWGQGTQVTVSS
high polyreactivity

* * *

experimentNotes: yeast display, Sf9 membrane polyspecificity reagent, FACS + sequencing; frameworks hold sequencing errors
valueKind: polyreactivity (PSR sort gate)

[[record]]
sequencerecord = "QVQLVESGGGLVQAGGSLRLSCAASGRTFYGYAMGWYRQAPGKERELVAAITRSGGSTYYADSVKGRFTISRDNAKNTVYLQMNSLKPEDTAVYYCAAGGQARHDYWGQGTQVTVSS"
result = "low polyreactivity"

[[record]]
sequencerecord = "QVQLQGSGGGLVQSGGSLRLSCAASGKIFDADIMGWYRQAPGKESELVASITHGGSTNYADSVKGRFTISRDNAKNNVYLQMNSLIQEDTAVYYCAAIAYPDIPTYFDYDSDCFYWSQGTQVTVSS"
result = "high polyreactivity"

[[record]]
sequencerecord = "QVQLVESGGGLVQAGGSLRLSCAASGRTLRWYTMGGYRQAPGEERELVAAISSSGGSTYYADSVKGRFTISRDNAKNTVYLQMNSLKPEDTAVYYCARDRRLREYDYWGQGTQVTVSS"
result = "low polyreactivity"

[[record]]
sequencerecord = "QVQLVESWGVLVQAGGSLRLSCAAYGSIFRLYAMGSYRTAPGTARELVAAITSGDSTNYADSVKGRFTISRDNAKNTVYLQMNSLKPEDTAVYYCNSGRISVRVTSEQYAYHEYYYWGQGTQVTVSS"
result = "high polyreactivity"

[[record]]
sequencerecord = "QVQLVESGGGLVQAGGSLRLSCAASGSIFRWYAMGWYRQAPGKERELVAGISSTGGSTYYADSVKGRFTISRDNAKNTVYLQMNSLKPEDTAVYYCAVVSYPSAFRRYNYWGQGTQVTVSS"
result = "high polyreactivity"

[[record]]
sequencerecord = "QEQLQESGGGLVQAGCSLRLSCAANGYIFSVEYMGCYCLAPGKEREFVATINYDTSTYYADSVKGRFTISRDNAKNTVYLQMNSLKPEDTAVYYCAAYFYAYRSPGYWGLGTQVTVSS"
result = "high polyreactivity"

[[record]]
sequencerecord = "QVQLVESGGGLVQAGGSLRLSCAASGSTFYYYAMGWYRQAPGKERELVAAISATGGSTYYADSVKGRFTISRDNAKNTVYLQMNSLKPEDTAVYYCAAYASRRLRTIRIFGNDYWGQGTQVTVSS"
result = "high polyreactivity"

[[record]]
sequencerecord = "QVQLVESGGGLVQAGGSLRLSCAASGITIVLYAMGWYRQAPGKERELVAAINIDGNTNYADSVKGRFTISRDNAKNTVYLQMNSLKPEDTAVYYCATYYYYPSWYLLYGEYNYWGQGTQVTVSS"
result = "low polyreactivity"


Need polyreactivity (PSR sort gate), item QDQLVESGGGLVHAGGSLRLSCAASGLTFGRNAMGWYRQAPGKERELVAAISRSGGRTSYADSVKGRFTISRDNAKYTVYLQMHSLKPEDTAVYYCAARSDVFTHDYWGQGTQVTVSS
high polyreactivity

Need polyreactivity (PSR sort gate), item QVQLVESGGRLVQAGGSLRLSCAASGSTFWYYAMGWYRQAPGKERELVASITYSGGSTYYADSVKGRFTISRDTAKNTVYLQMNSLKPEDTAVYYCAAEGYYSNYHYWGQGTQVTVSS
low polyreactivity

Need polyreactivity (PSR sort gate), item QFQLVESVGGLVQAGGSLRLSCAASGNIFPAYAMGWYRQAPGKERELVAAISKSGGRTYYADSVKGRFTISRDNAKNTVYLQMNSQKPEDTAVYYALLTVLRAVPYSVRYDYCGQGTQVTVSS
high polyreactivity

Source: the nanobody polyreactivity screen of Harvey et al. (2022)
